subject-of-test: MLL4 4210-4280 (UniProt O14686)
method-notes: MST
condition: apparent Kd; EMSA: LightShift RNA EMSA kit protocol, 1 or 2 nM RNA, 30 min at room temperature, 4 or 6% native PAGE; MST buffer, pH and temperature not given in the …
reported-property: pKd
Units for pKd: none; it is -log10 of a concentration expressed in mol/L.

Please list pKd recorded for the substance HOTAIR440
4.88
